Target: Substance-K receptor (Homo sapiens)
Sequence (P21452 whole entry): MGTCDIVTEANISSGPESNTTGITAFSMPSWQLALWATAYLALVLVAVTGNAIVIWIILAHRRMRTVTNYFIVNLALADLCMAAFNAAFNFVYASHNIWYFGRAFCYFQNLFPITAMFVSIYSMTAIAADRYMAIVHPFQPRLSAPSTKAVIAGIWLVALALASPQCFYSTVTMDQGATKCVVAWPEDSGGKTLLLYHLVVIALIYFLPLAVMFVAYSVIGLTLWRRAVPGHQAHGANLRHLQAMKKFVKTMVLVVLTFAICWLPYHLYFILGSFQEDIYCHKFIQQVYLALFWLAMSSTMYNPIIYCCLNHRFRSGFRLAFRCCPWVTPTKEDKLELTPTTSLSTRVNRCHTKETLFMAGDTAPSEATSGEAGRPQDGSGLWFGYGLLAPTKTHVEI
Experiment: Displacement of [125I]NKA from human recombinant NK2 receptor expressed in CHO cells
Recorded Endpoint: IC50

Asked: Data request, read-out IC50, for C/C(=N\OC(=O)Nc1ccccc1)c1cccc(-c2cccs2)c1
Given back: > 10 µM

* * *

Molecular target: Beta-1 adrenergic receptor (Homo sapiens)
Sequence (P08588 whole entry): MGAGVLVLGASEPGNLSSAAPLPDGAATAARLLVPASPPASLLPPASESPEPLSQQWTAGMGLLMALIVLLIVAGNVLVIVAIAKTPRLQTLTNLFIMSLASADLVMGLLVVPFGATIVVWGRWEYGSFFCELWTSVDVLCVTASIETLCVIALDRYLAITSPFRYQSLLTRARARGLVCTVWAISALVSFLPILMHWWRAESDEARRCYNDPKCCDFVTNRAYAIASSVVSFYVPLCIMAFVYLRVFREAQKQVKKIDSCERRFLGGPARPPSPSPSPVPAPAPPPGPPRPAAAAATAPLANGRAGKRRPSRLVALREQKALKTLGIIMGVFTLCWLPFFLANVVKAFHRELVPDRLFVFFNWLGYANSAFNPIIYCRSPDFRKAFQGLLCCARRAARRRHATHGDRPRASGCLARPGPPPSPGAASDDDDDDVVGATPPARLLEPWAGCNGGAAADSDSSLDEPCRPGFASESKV
Test: Displacement of [3H](-)CGP 12177 from human recombinant beta-1 receptor expressed in HEK293 cells
Recorded Endpoint: IC50

Asked: // map C/C(=N\OC(=O)Nc1ccccc1)c1cccc(-c2cccs2)c1 to recorded IC50 (system: Beta-1 adrenergic receptor (Homo sapiens))
Given back: > 10 µM

* * *

Target: Adenosine receptor A1 (Homo sapiens)
Sequence (P30542 whole entry): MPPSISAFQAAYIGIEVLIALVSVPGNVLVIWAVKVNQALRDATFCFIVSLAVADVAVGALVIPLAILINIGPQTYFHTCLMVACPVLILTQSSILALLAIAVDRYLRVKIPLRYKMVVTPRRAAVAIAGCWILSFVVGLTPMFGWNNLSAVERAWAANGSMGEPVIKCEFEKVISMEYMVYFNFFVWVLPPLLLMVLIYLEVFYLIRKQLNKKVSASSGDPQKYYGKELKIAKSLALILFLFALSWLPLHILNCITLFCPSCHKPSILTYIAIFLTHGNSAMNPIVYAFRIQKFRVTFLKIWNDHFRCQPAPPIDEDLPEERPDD
Assay: Displacement of [3H]DPCPX from human recombinant A1 receptor expressed in CHO cells
pIC50: −log10 of the molar value.
Recorded Endpoint: pIC50

Asked: Data request, read-out pIC50, for C/C(=N\OC(=O)Nc1ccccc1)c1cccc(-c2cccs2)c1
Given back: < 5.00
